# targetOrSystem: Autotaxin enzyme (ATX) (Homo sapiens, UniProt Q13822)

# molecule, targetOrSystem, IC50
rows = [
    ("CC(Nc1ncc(C(=O)N2CCC23COC3)cn1)c1cccc(OC(F)(F)F)c1 (stereo not shown)", "Autotaxin enzyme (ATX) (Homo sapiens, UniProt Q13822)", "≥ 1000 nM"),
    ("CC(C)c1cc(CNc2ccc(C(=O)N3CCC34COC4)cn2)cc(OC(F)(F)F)c1", "Autotaxin enzyme (ATX) (Homo sapiens, UniProt Q13822)", "< 100 nM"),
    ("CCOc1ccc2c(c1)CC(Nc1ncc(C(=O)N3CCC34COC4)cn1)C2 (stereo not shown)", "Autotaxin enzyme (ATX) (Homo sapiens, UniProt Q13822)", "100 to 1000 nM"),
    ("O=C(c1cnc(NCc2cc(OC(F)(F)F)cc(C3CC3)c2)nc1)N1CCC12CN(C1CCC1)C2", "Autotaxin enzyme (ATX) (Homo sapiens, UniProt Q13822)", "< 100 nM"),
]

----------
The molecules below have reported IC50 for Autotaxin enzyme (ATX) (Homo sapiens, UniProt Q13822).

# molecule, IC50
data = [
    ("O=C(c1cnc(NCc2ccc(Cl)c(Cl)c2)nc1)N1CCC12COC2", "≥ 1000 nM"),
    ("O=C(c1cnc(NCc2cccc(C(F)(F)F)c2)nc1)N1CCC12COC2", "≥ 1000 nM"),
    ("CS(=O)(=O)CCN1CC2(CCN2C(=O)c2cnc(NCc3cc(OC(F)(F)F)cc(C4CC4)c3)nc2)C1", "< 100 nM"),
    ("CN1CC2(CCCN2C(=O)c2cnc(NCc3cc(OC(F)(F)F)cc(C4CC4)c3)nc2)C1", "< 100 nM"),
    ("CN1CCCC2(CCN2C(=O)c2cnc(NCc3cc(OC(F)(F)F)cc(C4CC4)c3)nc2)C1 (centres unmarked)", "< 100 nM"),
    ("O=C(c1cnc(NCc2cccc(OC(F)(F)F)c2)nc1)N1CC2(COC2)C1", "≥ 1000 nM"),
    ("O=C(c1cnc(N[C@@H]2Cc3ccc(Br)cc3C2)nc1)N1CCC12COC2", "< 100 nM"),
    ("O=C(c1cnc(NCc2cc(OC(F)(F)F)cc(C3CC3)c2)nc1)N1CCC12CCCOC2 (centres unmarked) [Example 108]", "< 100 nM"),
]

----------
# targetOrSystem: Autotaxin enzyme (ATX) (Homo sapiens, UniProt Q13822)
# Construct: purchased Echelon Biosciences, Inc. E-4000
# protocolDescription: In vitro ATX assay (enzymatic ATX inhibition, LPC 14:0 substrate, choline oxidase/HRP absorbance readout)
# Assay type: biochemical
# conditionSet: 0.3 mM LPC 14:0, 37° C., 4 hours, absorbance 555 nm
pIC50: −log10 of the molar value.

# compound, pIC50
records = [
    ("CC1CCN1C(=O)c1cnc(NCc2cc(C(F)(F)F)cc(C(F)(F)F)c2)nc1 (stereo not shown)", "6.00 to 7.00"),
    ("CC(C)(O)C1CCN1C(=O)c1cnc(NCc2cc(OC(F)(F)F)cc(C3CC3)c2)nc1 (stereo not shown)", "> 7.00"),
    ("CC(C)c1cc(CNc2ncc(C(=O)N3CCC3C)cn2)cc(OC(F)(F)F)c1 (single isomer, unassigned)", "> 7.00"),
    ("CCOc1cc(CNc2ncc(C(=O)N3CCC34COC4)cn2)cc(OC(C)C)c1", "> 7.00"),
]

----------
# targetOrSystem: Autotaxin enzyme (ATX) (Homo sapiens)
reportedProperty: IC50

# mol, targetOrSystem, result
rows = [
    ("O=C(c1cnc(NCc2cc(OC(F)(F)F)cc(C3CC3)c2)nc1)N1CC2(CCO2)C1", "Autotaxin enzyme (ATX) (Homo sapiens)", "100 to 1000 nM"),
    ("O=C(c1cnc(NCc2cc(OCC(F)(F)F)cc(OC(F)(F)F)c2)nc1)N1CCC12COC2", "Autotaxin enzyme (ATX) (Homo sapiens)", "< 100 nM"),
    ("CC(C)c1cc(CNc2ncc(C(=O)N3CCC34COC4)cn2)cc(S(F)(F)(F)(F)F)c1", "Autotaxin enzyme (ATX) (Homo sapiens)", "100 to 1000 nM"),
    ("O=C(c1cnc(NCc2cc(OC(F)(F)F)cc(C3CC3)c2)nc1)N1CCC12CS(=O)(=O)C2", "Autotaxin enzyme (ATX) (Homo sapiens)", "< 100 nM"),
]

Origin of values: patent US20210363152A1
